tested on: HuH-7 hepatocellular carcinoma cells; test: Methylene blue staining proliferation assay (MBS); type: cell-based; conditions: Homo sapiens, HuH-7 cells, 72 hours, read-out: HUH7 proliferation (nM) MBS
Measurement Type: IC50 (nM)

# Compound, Target Or System, Observed Measurement
measured = [
    ("COCCNc1cc(NC(=O)N2CCCc3cc(CN4CCN(C)CC4=O)c(C=O)nc32)ncc1C#N [Example 1]", "HuH-7 hepatocellular carcinoma cells", 12),
]
